Data origin: PubChem BioAssay

Let's look at some molecules and their measured z-score.
assay.overview: JC-1 mitochondrial signal, unstimulated HepG2 cells – cell-based, JC-1 fluorescence, 24 h, 100 nL compound, profiling panel (AID 1167); also: test concentration not given here
condition.label: HepG2 mitochondrial potential, higher = more signal
Write no unit; give the number alone.

Solved entries (count: 8):
- O=C1NC(=O)C2C1C=CC(C(O)c1ccco1)N2Nc1ccc(Cl)cc1Cl (stereo not given): -1.96
- COCCOC(=O)N1C(=O)[C@@]2(c3cc(C#CC4=CCCCC4)ccc31)[C@H](c1ccccc1OCCO)N1[C@H](c3ccccc3)[C@H](c3ccccc3)OC(=O)[C@H]1[C@@H]2C(=O)NC[C@H](O)c1ccccc1: 0.315
- [N-]=[N+]=NCc1ccccc1[C@@H]1OC(c2ccc(OCCCO)cc2)=N[C@]1(CCS(=O)(=O)c1ccccc1)C(=O)O: -1.69
- CC(C)[Si]1(C(C)C)OCc2cc(-c3ccc(-c4ccc(Cl)c(Cl)c4)o3)nc(-c3ccccc3)c21: -1.18
- CCCCC=C[C@@H](NC(=O)OCc1ccccc1Cl)c1ccccc1: 0.359
- COc1ccc(C#Cc2ccc3c(c2)[C@]2(C(=O)N3)[C@H](c3ccc(OCCO)cc3)N3[C@H](c4ccccc4)[C@H](c4ccccc4)OC(=O)[C@H]3[C@@H]2C(=O)NC[C@H](O)c2ccccc2)cc1: -1.04
- C=C[C@@H](CO)N(Cc1ccc(OC)cc1)S(=O)(=O)c1ccc(Br)cc1: 0.622
- O=C1OCCC=C[C@H]2OC34C=CCN(Cn5nnc6ccccc65)C(=O)[C@H]3N(CCCO)C(=O)[C@@H]4C12 (stereo not given in full): -0.746

Let me know recorded z-score for CN(C)C(=O)[C@]1(CCC(=O)OC(C)(C)C)N=C(c2ccc(OCCCO)cc2)O[C@@H]1c1ccccc1CN=[N+]=[N-] , thanks. 1.74

Let me know recorded z-score for C=CCOC(=O)[C@@]1(Cc2ccccc2)C[C@H]2CO[C@H](c3ccc(OC)cc3)N2C1=O , thanks. -0.574

Let me know recorded z-score for O=C1OCCC=C[C@H]2OC34C=CCN(c5ccc6ccccc6c5)C(=O)[C@H]3N(CCCO)C(=O)[C@@H]4C12 (stereo not given in full) , thanks. -0.458

Let me know recorded z-score for CN(C)C(=O)[C@@]1(Cc2ccccc2)N=C(c2ccc(OCCCO)cc2)O[C@H]1c1ccccc1 , thanks. 0.285

Let me know recorded z-score for O=C1C2C=CC(C(O)c3cccc(O)c3)N(Nc3ccc([N+](=O)[O-])cc3)C2C(=O)N1c1ccccc1 (stereo not given) , thanks. -2.01

Let me know recorded z-score for CCCCN1CC=CC23O[C@@H]4/C=C\CCCOC(=O)C4[C@H]2C(=O)N(CCO)[C@@H]3C1=O (stereo not given in full) , thanks. -0.415

Let me know recorded z-score for C[C@@H]1NC(=O)[C@@H](Cc2ccccc2)NC(=O)[C@@]23C(=O)N[C@@H](Cc4ccccc4)C2[C@H](C)[C@@]2(C)O[C@H]2C3/C=C/C/C=C\CNC1=O (stereo not given in full) , thanks. -1.36
